inhibition by entry:
Study target: Pantothenate synthetase (Mycobacterium tuberculosis (strain ATCC 25618 / H37Rv)) (UniProt P9WIL5)
Sequence (P9WIL5 whole entry, looked up): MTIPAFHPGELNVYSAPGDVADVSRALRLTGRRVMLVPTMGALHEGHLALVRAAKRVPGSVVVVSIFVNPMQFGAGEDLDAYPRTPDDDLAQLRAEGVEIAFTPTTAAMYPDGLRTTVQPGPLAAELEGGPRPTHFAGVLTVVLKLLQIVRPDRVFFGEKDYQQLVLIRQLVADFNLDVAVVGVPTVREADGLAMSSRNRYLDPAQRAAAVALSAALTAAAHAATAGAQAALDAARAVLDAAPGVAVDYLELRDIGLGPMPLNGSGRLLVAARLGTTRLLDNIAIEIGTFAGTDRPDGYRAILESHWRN
Test protocol: Coupled enzyme confirmation of inhibitors against recombinant Mtb PanC (AID 375);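 note: 0% = full reaction with vehicle and 100% = no enzyme background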
Condition summary: coupled enzyme assay; at 10 µM, stronger effect = higher value

Compound	Quantity unit	inhibition
COc1cc2c(=O)n(Cc3ccccc3)c(=O)n(CC(=O)NCc3ccco3)c2cc1OC	%	7
CCOCC(=O)Nc1nc2c(s1)C(=O)CC(C)(C)C2	%	5
CCCc1ccc(S(=O)(=O)NCCc2ccncc2)cc1	%	0
CCOc1ccc(-c2nc(C#N)c(N3CCN(C)CC3)o2)cc1	%	2
CCN(CC)C(=O)Oc1ccccc1NC(C)=O	%	1
CCOC(=O)c1cc2n(n1)C(C(F)(F)C(F)(F)F)CC(C)N2 (stereo unspecified)	%	1
Cc1nc2ccccc2c2c1C(=O)N(CCC1=CCCCC1)C2=O	%	9
CCOc1ccc2nc(N3CCC(C(=O)N4CCN(C5CCCCC5)CC4)CC3)sc2c1	%	0
Cc1oc2cc3c(C(=O)OCCN(C)C)c(C)oc3cc2c1C(=O)OCCN(C)C	%	0
CCCCOC(=O)C1=C(C)Nc2ncnn2C1c1cccc(OC)c1OC (stereo unspecified)	%	8
Cc1cccc(C)c1-n1nnnc1SCSc1nnnn1-c1c(C)cccc1C	%	1
O=C(O)CCn1[nH]c(=O)ccc1=O	%	0
O=C(Nc1ccc(F)cc1)c1cccc2c1C(=O)N(Cc1ccccn1)C2	%	0
Cc1ccc(S(=O)(=O)N(C)Cc2cc3ccccc3[nH]c2=O)cc1	%	0
CCCN1CC23C=CC(O2)C(C(=O)O)C3C1=O (stereo unspecified)	%	0
O=C(COC(=O)c1cc(S(=O)(=O)N2CCOCC2)ccc1O)NCC1CCCO1 (stereo unspecified)	%	15
